experiment: Cmax in Balb/c mouse at 20 mg/kg, po; type: ADME, organism-based; parameters: dose 20 mg/kg, route oral; details: in vivo
VALUE_TYPE: Cmax (µM)
Give the quantity in µM, number only.

Specify measured Cmax for COCCS(=O)(=O)C(C(=O)NCC(=O)NC1CC1)c1nc2ccc(-c3ccc(F)nc3)cc2s1 (stereo unspecified) .
143

====

assay: Half life in Balb/c mouse at 20 mg/kg, po; assay type: ADME, organism-based; conditions: in vivo
VALUE_TYPE: half-life (h)
Supply the numeric figure in h, leaving out any unit text.

Note down half-life recorded for COCCS(=O)(=O)C(C(=O)NCC(=O)NC1CC1)c1nc2ccc(-c3ccc(F)nc3)cc2s1 (stereo unspecified)
2.3

====

test: Total AUC in Balb/c mouse at 10 mg/kg, po measured after 24 hrs; assay type: ADME, organism-based; parameters: dose 10 mg/kg, time AUCmax, route oral; settings: in vivo
VALUE_TYPE: log10(AUC at 24 h) (log10 of the value in µM·h)
Heads up: the numbers are on a log10 scale; they represent AUC at 24 h in µM·h.

Example cases with answers are listed next.
CS(=O)(=O)C(C(=O)NCCS(N)(=O)=O)c1nc2ccc(-c3ccc(F)nc3)cc2s1 (stereo not given) | -1.30
COCCS(=O)(=O)C(C(=O)NCC(=O)NC1CC1)c1nc2ccc(-c3ccc(F)nc3)cc2s1 (stereo not given) | 2.05
CS(=O)(=O)C(C(=O)NCCS(N)(=O)=O)c1nc2ccc(-c3ccccc3)cc2s1 (stereo not given) | 1.15
CS(=O)(=O)C(C(=O)NCCS(N)(=O)=O)c1nc2ccc(-c3ccc(C(=O)N4CCOCC4)cc3)cc2s1 (stereo not given) | -0.80

# evaluate next
Provide only the value of recorded log10(AUC at 24 h) for CS(=O)(=O)C(C(=O)NCCS(N)(=O)=O)c1nc2ccc(-c3cnn(CCN4CCOCC4)c3)cc2s1 (stereo not given)
-1.00

====

pIC50 by entry:
Target: Endothelial lipase (Mus musculus)
Sequence (Q9WVG5 whole entry): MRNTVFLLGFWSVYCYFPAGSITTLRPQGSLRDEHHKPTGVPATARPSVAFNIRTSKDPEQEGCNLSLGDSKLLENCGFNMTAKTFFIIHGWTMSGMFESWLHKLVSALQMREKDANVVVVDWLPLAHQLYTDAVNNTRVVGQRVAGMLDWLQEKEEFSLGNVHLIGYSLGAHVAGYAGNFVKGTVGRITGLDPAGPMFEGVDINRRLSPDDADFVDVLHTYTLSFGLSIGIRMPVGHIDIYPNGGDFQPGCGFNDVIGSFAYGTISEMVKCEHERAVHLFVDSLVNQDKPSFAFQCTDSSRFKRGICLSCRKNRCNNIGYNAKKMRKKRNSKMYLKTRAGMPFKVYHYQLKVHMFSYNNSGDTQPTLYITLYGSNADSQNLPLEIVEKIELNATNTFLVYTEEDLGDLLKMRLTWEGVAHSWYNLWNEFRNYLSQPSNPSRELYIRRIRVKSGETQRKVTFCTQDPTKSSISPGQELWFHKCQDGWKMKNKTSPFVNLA
Assay: Inhibition of mouse endothelial lipase expressed in HEK293F cells using D31-POPC-HDL as substrate incubated for 2 hrs in presence of mouse plasma by LC/MS analysis
Just the number, please; pIC50 means minus log10 of the concentration in mol/L.

CS(=O)(=O)C(C(=O)NCCS(N)(=O)=O)c1nc2ccc(-c3ccc(C(=O)N4CCOCC4)cc3)cc2s1 (stereo not drawn) | 6.49
COCCS(=O)(=O)C(C(=O)NCC(=O)NC1CC1)c1nc2ccc(-c3ccc(F)nc3)cc2s1 (stereo not drawn) | 6.92
O=C(CNC(=O)C(c1nc2ccc(-c3ccc(F)nc3)cc2s1)S(=O)(=O)Cc1ccccc1)NC1CC1 (stereo not drawn) | 7.03

Look up and report pIC50, with Endothelial lipase (Mus musculus) as system, for CS(=O)(=O)C(C(=O)NCC(=O)NC1CC1)c1nc2ccc(-c3ccc(F)nc3)cc2s1 (stereo not drawn)
6.54

====

test: Half life in Balb/c mouse at 10 mg/kg, po; type: ADME, organism-based; conditions: in vivo
VALUE_TYPE: half-life (h)
Report as a plain number; the unit h is understood.

Determine its reported half-life: COCCS(=O)(=O)C(C(=O)NCC(=O)NC1CC1)c1nc2ccc(-c3ccc(F)nc3)cc2s1 (stereo unspecified)
2.2

====

test: Tmax in Balb/c mouse at 30 mg/kg, po; type: ADME, organism-based; conditions: in vivo
VALUE_TYPE: Tmax (min)
Entry rule: numbers only, all in min.

Write down Tmax measured for item COCCS(=O)(=O)C(C(=O)NCC(=O)NC1CC1)c1nc2ccc(-c3ccc(F)nc3)cc2s1 (stereo unspecified)
15

====

Listed next: entries and their corresponding IC50.
biological target: Hepatic triacylglycerol lipase (Homo sapiens); assay: Inhibition of human hepatic lipase expressed in African green monkey COS7 cells using PED-A1 as substrate incubated for 20 mins and measured every 20 secs for 10 mins by FRET assay
Sequence (P11150 whole entry): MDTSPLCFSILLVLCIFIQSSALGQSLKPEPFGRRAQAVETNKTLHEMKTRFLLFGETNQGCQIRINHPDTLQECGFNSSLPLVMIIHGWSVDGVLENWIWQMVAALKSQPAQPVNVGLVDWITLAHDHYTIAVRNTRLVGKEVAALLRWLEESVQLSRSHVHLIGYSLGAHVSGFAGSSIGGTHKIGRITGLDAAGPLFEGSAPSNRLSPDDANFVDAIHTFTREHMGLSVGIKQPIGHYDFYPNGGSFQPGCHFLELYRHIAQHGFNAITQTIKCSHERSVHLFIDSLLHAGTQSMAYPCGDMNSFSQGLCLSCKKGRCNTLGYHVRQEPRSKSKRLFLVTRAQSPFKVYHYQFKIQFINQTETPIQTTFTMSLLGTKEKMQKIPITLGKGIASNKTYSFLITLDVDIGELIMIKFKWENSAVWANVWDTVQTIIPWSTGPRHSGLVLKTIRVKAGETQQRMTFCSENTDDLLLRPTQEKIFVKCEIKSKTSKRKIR
Field format: number, assumed nM, no unit text.

CS(=O)(=O)C(C(=O)NCCS(N)(=O)=O)c1nc2ccc(-c3ccc(F)nc3)cc2s1 (stereo not given) | 4400
CS(=O)(=O)C(C(=O)NCCCS(N)(=O)=O)c1nc2ccc(-c3ccccc3)cc2s1 (stereo not given) | 52
CS(=O)(=O)C(C(=O)NCCS(N)(=O)=O)c1nc2ccc(-c3ccccc3)cc2s1 (stereo not given) | 15
CS(=O)(=O)C(C(=O)NCCNS(N)(=O)=O)c1nc2ccc(-c3ccccc3)cc2s1 (stereo not given) | 81
CS(=O)(=O)C(C(=O)NCCS(N)(=O)=O)c1nc2ccc(-c3ccc(C(=O)N4CCOCC4)cc3)cc2s1 (stereo not given) | 280
CS(=O)(=O)C(C(=O)NCC(=O)NC1CC1)c1nc2ccc(-c3ccccc3)cc2s1 (stereo not given) | 47
CS(=O)(=O)C(C(=O)NCC(=O)NC1CC1)c1nc2ccc(-c3ccc(F)nc3)cc2s1 (stereo not given) | 130
O=C(CNC(=O)C(c1nc2ccc(-c3ccc(F)nc3)cc2s1)S(=O)(=O)CCC(F)(F)F)NC1CC1 (stereo not given) | 79

Tell me measured IC50 for O=C(CNC(=O)C(c1nc2ccc(-c3ccc(F)nc3)cc2s1)S(=O)(=O)Cc1ccccc1)NC1CC1 (stereo not given) please.
7

Output IC50 of COCCS(=O)(=O)C(C(=O)NCC(=O)NC1CC1)c1nc2ccc(-c3ccc(F)nc3)cc2s1 (stereo not given)
230

====

assay: Total AUC in Balb/c mouse at 30 mg/kg, po measured after 24 hrs; assay type: ADME, organism-based; design: dose 30 mg/kg, route oral, time AUCmax; conditions: in vivo
VALUE_TYPE: AUC at 24 h (µM·h)
Report the value in µM·h with no unit label.

Respond only with AUC at 24 h recorded for COCCS(=O)(=O)C(C(=O)NCC(=O)NC1CC1)c1nc2ccc(-c3ccc(F)nc3)cc2s1 (stereo unspecified)
240

====

test: Tmax in Balb/c mouse at 10 mg/kg, po; type: ADME, organism-based; conditions: in vivo
Below: a set of entries, each annotated with reported Tmax.
Give just the number in h; leave the unit off.

Here are 3 compounds together with their reported answers.
CS(=O)(=O)C(C(=O)NCCS(N)(=O)=O)c1nc2ccc(-c3ccccc3)cc2s1 (centres undefined) | 0.5
COCCS(=O)(=O)C(C(=O)NCC(=O)NC1CC1)c1nc2ccc(-c3ccc(F)nc3)cc2s1 (centres undefined) | 1
CS(=O)(=O)C(C(=O)NCCS(N)(=O)=O)c1nc2ccc(-c3ccc(C(=O)N4CCOCC4)cc3)cc2s1 (centres undefined) | 2.6

Below: the item to evaluate.
Quick one: give measured Tmax for CS(=O)(=O)C(C(=O)NCCS(N)(=O)=O)c1nc2ccc(-c3cnn(CCN4CCOCC4)c3)cc2s1 (centres undefined)
3

====

test: Permeability of compound at pH 7.4 by PAMPA; type: ADME; conditions: read-out: permeability
VALUE_TYPE: Papp
Number first, unit second.

Note Papp for the compound shown: CS(=O)(=O)C(C(=O)NCCS(N)(=O)=O)c1nc2ccc(-c3ccc(F)nc3)cc2s1 (centres undefined)
7.8 ×10⁻⁶ cm/s

====

test: Plasma concentration in Balb/c mouse at 10 mg/kg, po measured after 7 hrs; assay type: ADME, organism-based
VALUE_TYPE: concentration at 7 h
Kindly report the value followed by its unit.

Record excerpt, results attached:
CS(=O)(=O)C(C(=O)NCCS(N)(=O)=O)c1nc2ccc(-c3ccccc3)cc2s1 (stereo not given) | 430 nM
CS(=O)(=O)C(C(=O)NCCS(N)(=O)=O)c1nc2ccc(-c3cnn(CCN4CCOCC4)c3)cc2s1 (stereo not given) | 4 nM
CS(=O)(=O)C(C(=O)NCCS(N)(=O)=O)c1nc2ccc(-c3ccc(F)nc3)cc2s1 (stereo not given) | 1 nM

Identify concentration at 7 h associated with the compound CS(=O)(=O)C(C(=O)NCCS(N)(=O)=O)c1nc2ccc(-c3ccc(C(=O)N4CCOCC4)cc3)cc2s1 (stereo not given)
8 nM

For the compound COCCS(=O)(=O)C(C(=O)NCC(=O)NC1CC1)c1nc2ccc(-c3ccc(F)nc3)cc2s1 (stereo not given) , give its reported concentration at 7 h.
1700 nM
